- tgt: Serine/threonine-protein kinase B-raf (Homo sapiens, UniProt P15056, V600E)
- Sequence (P15056 2-766 V600E limits assumed): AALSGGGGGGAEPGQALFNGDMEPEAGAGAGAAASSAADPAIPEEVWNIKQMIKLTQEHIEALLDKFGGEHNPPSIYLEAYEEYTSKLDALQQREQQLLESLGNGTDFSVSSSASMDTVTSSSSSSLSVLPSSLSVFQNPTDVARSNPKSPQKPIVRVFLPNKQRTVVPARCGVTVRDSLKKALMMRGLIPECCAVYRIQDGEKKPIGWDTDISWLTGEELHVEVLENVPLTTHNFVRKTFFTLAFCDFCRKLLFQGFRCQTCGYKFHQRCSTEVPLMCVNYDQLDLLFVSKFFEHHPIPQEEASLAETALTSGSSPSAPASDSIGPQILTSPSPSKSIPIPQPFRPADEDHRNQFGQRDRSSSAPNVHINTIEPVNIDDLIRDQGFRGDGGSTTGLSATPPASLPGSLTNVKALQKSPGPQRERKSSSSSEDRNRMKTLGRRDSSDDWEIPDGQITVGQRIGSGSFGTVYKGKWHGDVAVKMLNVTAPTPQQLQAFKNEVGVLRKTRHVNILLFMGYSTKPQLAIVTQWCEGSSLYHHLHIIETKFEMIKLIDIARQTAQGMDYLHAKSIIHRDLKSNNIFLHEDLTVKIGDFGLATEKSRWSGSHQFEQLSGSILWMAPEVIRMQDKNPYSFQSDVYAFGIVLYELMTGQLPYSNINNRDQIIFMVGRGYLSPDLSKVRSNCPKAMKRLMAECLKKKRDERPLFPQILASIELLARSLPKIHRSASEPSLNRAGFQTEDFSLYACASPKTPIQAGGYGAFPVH
- protocol-text: Inhibition of human BRAF V600E mutant expressed in baculovirus system
Please respond with reported log10(IC50) for every item in the list.
// do not treat as linear: log10 of IC50, unit nM

Items follow; give log10(IC50) for each.
1. Cc1ccc(-n2nc(C(C)(C)C)cc2NC(=O)Nc2ccc(Oc3ccnc4[nH]c(=O)n(C)c34)cc2)cc1
2. CC(C)(C)c1cc(NC(=O)Nc2ccc(Oc3ccnc4[nH]c(=O)[nH]c34)cc2)n(Cc2ccccc2)n1
3. Cc1ccc(-n2nc(C(C)(C)C)cc2NC(=O)Nc2ccc(Oc3ccnc4c3[nH]c(=O)n4C)cc2F)cn1

# output
[2.31, 2.17, 2.72]

Items follow; give log10(IC50) for each.
1. Cn1c(=O)[nH]c2nccc(Oc3ccc(NC(=O)Nc4cc(C(C)(C)C)nn4-c4ccc(F)cc4)c4ccccc34)c21
2. Cn1c(=O)[nH]c2nccc(Oc3ccc(NC(=O)Nc4cc(C(C)(C)C)nn4-c4cccnc4)cc3)c21
3. Cc1ccc(-n2nc(C(C)(C)C)cc2NC(=O)Nc2ccc(Oc3ccnc4c3n(C)c(=O)n4C)cc2)cc1
4. CC(C)(C)c1csc(NC(=O)Nc2ccc(Oc3ccnc4[nH]c(=O)[nH]c34)cc2)n1

# output
1: 2.50; 2: 2.59; 3: 3.26; 4: 3.89

# input Provide the documented log10(IC50) with Serine/threonine-protein kinase B-raf (Homo sapiens, UniProt P15056, V600E) as the system for "CC(C)c1cc(NC(=O)Nc2ccc(Oc3ccnc4[nH]c(=O)[nH]c34)cc2)n(-c2ccccc2)n1"
# output 1.62

Just for reference, ChEMBL document CHEMBL1156296 is where these values come from.
